Value source: PubChem BioAssay

Answer each item with its documented z-score.
Assay: growth effects on S. cerevisiae YJM789 – YJM789 clinical isolate, OD600, 24 h, basal, primary screen (AID 1089);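 note: growth of clinical yeast isolate S. cerevisiae YJM 789 seeded 1000 cells per well; test concentration not given here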
Conditions: higher = more signal, called active from +8 up or from −8 down
Write the number on its own, no unit after it.

Give me measured z-score, please, for this compound: CC(C)CN1C(=O)[C@@]2(Cc3ccccc31)c1ccccc1C(=O)N(Cc1ccccc1)[C@H]2c1ccc(CO)cc1
-0.0832

Give me measured z-score, please, for this compound: CCCCCCC#C[Si](O[C@H](c1ccccc1)c1cn(Cc2cccc(Cl)c2)nn1)(C(C)C)C(C)C
-0.381

Give me measured z-score, please, for this compound: CCCCC=C[C@@H](NC(=O)CCc1ccccc1)c1ccccc1
0.174

Give me measured z-score, please, for this compound: Cc1cc(C)c(C(O)C2C=CC3C(=O)N(c4ccccc4)C(=O)C3N2Nc2ccccc2)c(C)c1 (stereo not given)
0.839

Give me measured z-score, please, for this compound: CCCC=C(CCC)[C@@H](NC(=O)Cc1ccccc1)c1ccc(C(=O)OC)cc1
0.761
